Assay: DNDI: Cytotoxicity against L929 mouse fibroblasts, CYTO-SP, 24 hour
Format: toxicity, cell-based
Settings: mouse, L929 mouse fibroblasts
readout type: IC50 at 24 h

The cases that follow already have their IC50 at 24 h on record.
{"compound": "CC(C)(C)CN/C(=N\\O)c1cccnc1Oc1ccc(Cl)cc1", "IC50 at 24 h": "> 50 µg/mL"}
{"compound": "COc1ccc(/C(Cc2ccccc2)=N/O)cc1", "IC50 at 24 h": "> 50 µg/mL"}

// lookup IC50 at 24 h for CCCCCC(C)NCc1cccc(-c2ccccc2)c1 (stereo not drawn)
> 50 µg/mL

###

Assay: DNDI: Cytotoxicity against L929 mouse fibroblasts, 72 hour.
Assay type: toxicity, cell-based
Conditions: mouse, L929 mouse fibroblasts
readout type: log10 of IC50 at 72 h (log10 of the value in µg/mL)
Reminder: these figures are log10 of reported IC50 at 72 h, in µg/mL before transformation.

{"compound": "CCCCCC(C)NCc1coc(-c2ccc(OCC(=O)c3ccccc3)cc2)n1 (stereo not drawn)", "log10 of IC50 at 72 h": 0.24}
{"compound": "Clc1ccc(-c2nc(CNC3CCCCC3)co2)cc1", "log10 of IC50 at 72 h": 0.84}
{"compound": "CCN(CC)CCCNc1cc(-c2ccccc2)nc2cc(-c3cccc(F)c3)nn12", "log10 of IC50 at 72 h": 0.40}
{"compound": "NCCCNc1cc(-c2ccccc2)nc2cc(-c3cccc(F)c3)nn12", "log10 of IC50 at 72 h": 0.20}
{"compound": "CN(Cc1coc(-c2ccc(Cl)cc2)n1)C1CCCCC1", "log10 of IC50 at 72 h": 1.06}

# query: log10 of IC50 at 72 h of entry CCCCCC(C)NCc1coc(-c2cccc(F)c2)n1 (stereo not drawn)
0.86

What value of log10 of IC50 at 72 h has been reported for the following compound? CCN(CC)CCCNc1cc(-c2ccccc2)nc2cc(-c3ccc(F)cc3)nn12
0.48

Look up log10 of IC50 at 72 h: O=c1cc(-c2ccccc2)[nH]c2cc(-c3ccc(F)cc3)nn12
1.00
